Test system: VDR:RXRa (NR concentration 270 nM, RXRa partner concentration 90 nM)
Assay: PBM binding z-score (relative to random genomic background probes); higher = stronger binding; sequences stand for … in GC…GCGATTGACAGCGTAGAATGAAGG
Quick rule: PBM binding z-score of at least 1 means condition met, below that means condition not met.

In [3]: df
Out[3]:
                        sequence_code          group
0  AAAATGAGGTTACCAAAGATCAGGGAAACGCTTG  condition met
1  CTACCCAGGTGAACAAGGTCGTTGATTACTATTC  condition met

Is PBM binding z-score for ATATGTAGGTTAAGGATCATTCAGGTTGGTTCGC at or above 1?
condition met

Is reported PBM binding z-score greater than or equal to 1 here: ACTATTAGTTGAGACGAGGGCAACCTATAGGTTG
condition not met

Could you verify whether the entry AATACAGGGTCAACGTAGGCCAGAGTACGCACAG shows PBM binding z-score of no less than 1?
condition met

Exam item: decide whether the reported PBM binding z-score for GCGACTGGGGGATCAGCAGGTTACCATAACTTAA is at least 1.
condition not met

---

System: RARa homodimer (NR concentration 270 nM)
Test: PBM binding z-score (relative to random genomic background probes); higher = stronger binding; sequences stand for … in GC…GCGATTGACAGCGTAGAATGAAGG
Property: PBM binding z-score
Could you keep your reply to the number by itself?

Here's what some known entries look like.
>>> print(df.to_string())
                        sequence_code   value
0  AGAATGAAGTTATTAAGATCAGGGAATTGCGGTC   0.224
1  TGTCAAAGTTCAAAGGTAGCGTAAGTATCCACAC    0.73
2  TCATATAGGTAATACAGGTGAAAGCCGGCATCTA   0.756
3  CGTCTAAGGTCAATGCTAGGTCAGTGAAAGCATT   0.698
4  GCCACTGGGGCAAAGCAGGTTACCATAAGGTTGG  -0.774
5  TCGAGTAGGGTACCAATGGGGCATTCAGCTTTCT   -1.44

Form: sequence = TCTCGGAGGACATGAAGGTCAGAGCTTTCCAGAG ; PBM binding z-score = 0.0257

// recorded PBM binding z-score for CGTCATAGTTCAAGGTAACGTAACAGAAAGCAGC : 0.512

---

// reported PBM binding z-score for each item listed
Test system: THRa homodimer (NR concentration 90 nM)
Assay: PBM binding z-score (relative to random genomic background probes); higher = stronger binding; sequences stand for … in GC…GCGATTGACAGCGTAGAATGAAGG

Some sequences with known PBM binding z-score results, for comparison:
                        sequence_code   value
0  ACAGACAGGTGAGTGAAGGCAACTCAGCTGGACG  -0.689
1  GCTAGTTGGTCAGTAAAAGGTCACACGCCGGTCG    1.66
2  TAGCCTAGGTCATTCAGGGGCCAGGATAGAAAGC   0.667
3  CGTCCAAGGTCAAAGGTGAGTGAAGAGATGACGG    2.28
4  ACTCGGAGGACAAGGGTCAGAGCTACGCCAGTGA   0.361

Value of PBM binding z-score reported for the sequence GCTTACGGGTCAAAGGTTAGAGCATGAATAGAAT is -0.338

Record summary for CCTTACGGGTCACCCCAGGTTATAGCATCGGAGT : reported PBM binding z-score = 1.21

PBM binding z-score reading for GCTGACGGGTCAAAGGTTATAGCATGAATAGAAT : -0.263

So, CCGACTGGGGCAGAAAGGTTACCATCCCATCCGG ? Its PBM binding z-score was -0.666

Entry under test: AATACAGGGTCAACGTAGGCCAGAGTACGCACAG . Its PBM binding z-score was 1.24

sequence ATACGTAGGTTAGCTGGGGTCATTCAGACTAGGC , PBM binding z-score observed: 2.74

Measured PBM binding z-score of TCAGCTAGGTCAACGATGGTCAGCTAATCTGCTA : 0.578

// recorded PBM binding z-score for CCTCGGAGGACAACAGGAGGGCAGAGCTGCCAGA : -0.458

The value of PBM binding z-score measured for the sequence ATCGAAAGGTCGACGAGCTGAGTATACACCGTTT turned out to be -0.705

sequence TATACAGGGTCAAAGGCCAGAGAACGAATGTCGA , PBM binding z-score observed: 0.635

Lab note: measured PBM binding z-score of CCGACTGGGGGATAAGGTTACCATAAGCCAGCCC was 2.11

The value of PBM binding z-score measured for the sequence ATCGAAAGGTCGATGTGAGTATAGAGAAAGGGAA turned out to be -0.864

Documented PBM binding z-score of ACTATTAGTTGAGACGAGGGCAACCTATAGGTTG : 0.429

The measured PBM binding z-score associated with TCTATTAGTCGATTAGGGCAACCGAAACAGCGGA reads 0.361

According to the records, this sequence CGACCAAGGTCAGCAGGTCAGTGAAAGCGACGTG displays PBM binding z-score of 1.63

Lookup result for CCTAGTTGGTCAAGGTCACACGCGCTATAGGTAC ; measured PBM binding z-score: 4.19

PBM binding z-score for ACTAGTTGGTCAGCTGAGCTCACACACAATTCGG is -0.346

Data point: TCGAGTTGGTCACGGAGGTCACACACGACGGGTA ; PBM binding z-score = 2.24

Reported PBM binding z-score of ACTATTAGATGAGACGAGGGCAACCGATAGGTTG : 0.659
